Exercise: for every item that follows, state its recorded T/C.
System: MX-1 breast xenograft, intrarenal, nude mice, tumor weight
Assay: NCI In Vivo Anticancer Drug Screen. Data for tumor model Human Mammary Carcinoma MX-1 Xenograft (intrarenal inoculation) in NU/NU BALB/C (nude) mice
Conditions: endpoint: mean tumor weight change; dose: 300.0 mg/kg/injection; schedule: Q04DX003 (sc); vehicle: saline; higher = larger tumour
Method: The antitumor activity of compounds was measured in mice bearing transplantable tumors. Survival or tumor size were measured and the results are expressed as the measurement made in the treated group (T) divided by the measurement made in the vehicle treated control group (C). The tumor model used in this assay is Human Mammary Carcinoma MX-1 Xenograft (intrarenal inoculation) in NU/NU BALB/C (nude) mice
Results filed as inconclusive are left out.

Form field T/C, entry `CN(CCN(C)C(=O)CCOS(C)(=O)=O)C(=O)CCOS(C)(=O)=O` : -44 % of control

The compound `COc1cc2c(ccc3c4cc(OC)c(OC)cc4c[n+](C)c23)cc1O` showed T/C equal to 74 % of control

Input `COc1cc(Cc2nccc3cc(OC)c(OC)cc23)c(C(C)=O)cc1OC` . Output T/C: 54 % of control

For this compound ( `CC(=O)CC(=O)CCC(=O)O` ), measured T/C is 88 % of control

// T/C lookup, compound = `CCn1cnc2c(=S)nc[nH]c21` , result: 49 % of control

Data point: `C1CC[N-]CC1.C1CC[N-]CC1.C1CC[N-]CC1.[Cl][Rh]([Cl])[Cl]` ; T/C = 75 % of control

Form field T/C, entry Nc1ncn(C2OC(CO)C(O)C2O)c(=O)n1 (stereo not drawn) : 8 % of control

T/C reading for COC1C(OC(=O)/C=C/C=C/C=C/C=C/C(=O)O)CCC2(CO2)C1C1(C)OC1CC=C(C)C (stereo not drawn) : 96 % of control

---

test system: MX-1 breast xenograft, intrarenal, nude mice, tumor weight; test: NCI In Vivo Anticancer Drug Screen. Data for tumor model Human Mammary Carcinoma MX-1 Xenograft (intrarenal inoculation) in NU/NU BALB/C (nude) mice; details: endpoint: mean tumor weight change; dose: 300.0 mg/kg/injection; schedule: Q04DX003 (ip); vehicle: Klucel (hydroxypropylcellulose) (HPC); higher = larger tumour
Results filed as inconclusive are left out.
Attribute measured: T/C

CCOC(=O)/C=C/C(=O)N1CCN(C(=O)/C=C/C(=O)OCC)C(C)C1 (stereo unspecified) has a reported T/C of 83 % of control

The measured T/C associated with `O=C1CC2(C(=O)N1CN1CCOCC1)c1ccccc1-c1ccccc12` reads 97 % of control

// field: T/C; key: C=CCOc1cc2c(cc1C(C)c1ccc(OC)cc1)OCO2 (stereo unspecified) ; value = 94 % of control

Value of T/C reported for the compound COC(=O)C1(F)C(=O)NC(=O)NC1OC (stereo unspecified) is 93 % of control

Entry CCOC1NC(=O)Oc2ccccc21 (stereo unspecified) — recorded T/C = 74 % of control

T/C in this record for O=C(NC(Cc1ccc(I)cc1)C(=O)O)c1cccc(Br)c1 (stereo unspecified) : 72 % of control

---

tested on: MX-1 breast xenograft, intrarenal, nude mice, tumor weight; assay: NCI In Vivo Anticancer Drug Screen. Data for tumor model Human Mammary Carcinoma MX-1 Xenograft (intrarenal inoculation) in NU/NU BALB/C (nude) mice; conditions: endpoint: mean tumor weight change; dose: 600.0 mg/kg/injection; schedule: Q04DX003 (ip); vehicle: suspension in saline; higher = larger tumour
Records with an inconclusive call do not appear.
Would you mind telling me the reported T/C of each entry?

Measured T/C of `N[C@@H](C[C@H]1CCC(=O)[C@@H]2O[C@H]12)C(=O)O` : 82 % of control

`CCOC(=O)C1=C(Nc2ccc(OC)cc2)C(N)=NC1=N` yielded T/C of 32 % of control

In plain terms, NC(=O)CCC(N)C(=O)O (stereo not drawn) has a documented T/C of 76 % of control

---

System: MX-1 breast xenograft, intrarenal, nude mice, tumor weight
Assay: NCI In Vivo Anticancer Drug Screen. Data for tumor model Human Mammary Carcinoma MX-1 Xenograft (intrarenal inoculation) in NU/NU BALB/C (nude) mice
Conditions: endpoint: mean tumor weight change; dose: 150.0 mg/kg/injection; schedule: Q04DX003 (ip); vehicle: saline with Tween-80; higher = larger tumour
Description: The antitumor activity of compounds was measured in mice bearing transplantable tumors. Survival or tumor size were measured and the results are expressed as the measurement made in the treated group (T) divided by the measurement made in the vehicle treated control group (C). The tumor model used in this assay is Human Mammary Carcinoma MX-1 Xenograft (intrarenal inoculation) in NU/NU BALB/C (nude) mice
Records with an inconclusive call do not appear.
Attribute measured: T/C

Form field T/C for item `C[n+]1c(-c2ccc(/C=N/NC(=O)c3ccc(C(=O)N/N=C/c4ccc(-c5cn6ccccc6[n+]5C)cc4)cc3)cc2)cn2ccccc21` on MX-1 breast xenograft, intrarenal, nude mice, tumor weight: 56 % of control

T/C for MX-1 breast xenograft, intrarenal, nude mice, tumor weight with input `COc1cc2c[n+](C)c3c(c2cc1OC)Cc1cc2c(cc1-3)OCO2` equals 35 % of control

Short answer on MX-1 breast xenograft, intrarenal, nude mice, tumor weight for `CN=C(N)N/N=C(\C)c1ccc2sc3ccc(/C(C)=N/NC(N)=NC)cc3c2c1` , T/C: 90 % of control

Entry `N#CCS(=O)(=O)c1cccc[n+]1[O-]` under MX-1 breast xenograft, intrarenal, nude mice, tumor weight had T/C of 77 % of control

---

For each of the compounds below, state its T/C.
test system: MX-1 breast xenograft, intrarenal, nude mice, tumor weight; assay: NCI In Vivo Anticancer Drug Screen. Data for tumor model Human Mammary Carcinoma MX-1 Xenograft (intrarenal inoculation) in NU/NU BALB/C (nude) mice; conditions: endpoint: mean tumor weight change; dose: 600.0 mg/kg/injection; schedule: Q04DX003 (ip); vehicle: saline with Tween-80; higher = larger tumour
Inconclusive results are not listed.

Value of measured T/C for the entry `CCOC(=O)Nc1cc2c(c(N)n1)N=C(c1ccccc1)CO2` : 51 % of control

The recorded T/C for `c1ccc(-c2cc3cc4ccccc4cn3c2)cc1` is 81 % of control

Lab note: measured T/C of `ClC1(Cl)Cc2ccccc21` was 45 % of control
